targetOrSystem: human NaPi-IIb (Homo sapiens)
Construct: expressed in transfected cells
protocolDetails: Inhibitory effect on 33PO4 uptake into human NaPi-IIb-expressing CHO cells
Format: cell-based
runConditions: read-out: IC50
measurementKind: IC50 (µM)
Answers are plain numbers, in µM.

The following compounds have reported results that may help.
smilesRepresentation: CN1N(Cc2ccc(C#CCN3CCOCC3)c(F)c2F)C(=O)C(C(=O)Nc2ccc(C(F)(F)F)cc2-c2cc(C(F)(F)F)ncn2)=C(O)C1(C)C
measurementKind: IC50
outputUnit: µM
value: 9.8
//
smilesRepresentation: Cc1nc(NC(=O)C2=C(O)[C@H](C(C)(C)C)N(C)N(Cc3cccc(F)c3F)C2=O)ccc1Br
measurementKind: IC50
outputUnit: µM
value: 16.5
//
smilesRepresentation: CN1[C@@H](C(C)(C)C)C(O)=C(C(=O)Nc2ccc(C(F)(F)F)cc2-c2ccnc(C#N)c2)C(=O)N1Cc1ccc(OCCN2CCOCC2)c(F)c1F
measurementKind: IC50
outputUnit: µM
value: 17.3
//
smilesRepresentation: Cc1nc(NC(=O)C2=C(O)[C@@]3(C)CCCN3N(Cc3cccc(F)c3Br)C2=O)ccc1Br
measurementKind: IC50
outputUnit: µM
value: 8.5
//
smilesRepresentation: CSc1ncc(-c2nc(C(F)(F)F)ccc2NC(=O)C2=C(O)[C@@]3(C)CCCN3N(Cc3cccc(F)c3F)C2=O)cn1
measurementKind: IC50
outputUnit: µM
value: 2.3

// for each compound below, give its IC50
1. C[C@]12CCCN1N(Cc1cc(F)cc(F)c1)C(=O)C(C(=O)Nc1ccc(C(F)(F)F)cc1-c1cc(C(F)(F)F)ncn1)=C2O
2. Cc1c(C#N)ncnc1-c1cc(C(F)(F)F)ccc1NC(=O)C1=C(O)C(C)(C)N(C)N(Cc2cccc(F)c2F)C1=O
3. C[C@]12CCCN1N(Cc1c(F)cc(CCCCCCCOC[C@H](O)[C@@H](O)CO)cc1F)C(=O)C(C(=O)Nc1ccc(C(F)(F)F)cc1-c1ccc(C(F)(F)F)nc1)=C2O
4. CN1N(Cc2ccc(OCCN3CCOC(C)(C)C3)c(F)c2F)C(=O)C(C(=O)Nc2ccc(C(F)(F)F)cc2-c2cc(C(F)(F)F)ncn2)=C(O)C12CCC2
5. C[C@]12CCCN1N(Cc1cccc(F)c1Br)C(=O)C(C(=O)Nc1ccc(Br)c(C(F)(F)F)c1)=C2O

1: 6.4; 2: 8.2; 3: 1.3; 4: 8.8; 5: 5

====

targetOrSystem: human NaPi-IIb (Homo sapiens, UniProt O95436)
Construct: expressed in transfected cells
Sequence (O95436 1-690): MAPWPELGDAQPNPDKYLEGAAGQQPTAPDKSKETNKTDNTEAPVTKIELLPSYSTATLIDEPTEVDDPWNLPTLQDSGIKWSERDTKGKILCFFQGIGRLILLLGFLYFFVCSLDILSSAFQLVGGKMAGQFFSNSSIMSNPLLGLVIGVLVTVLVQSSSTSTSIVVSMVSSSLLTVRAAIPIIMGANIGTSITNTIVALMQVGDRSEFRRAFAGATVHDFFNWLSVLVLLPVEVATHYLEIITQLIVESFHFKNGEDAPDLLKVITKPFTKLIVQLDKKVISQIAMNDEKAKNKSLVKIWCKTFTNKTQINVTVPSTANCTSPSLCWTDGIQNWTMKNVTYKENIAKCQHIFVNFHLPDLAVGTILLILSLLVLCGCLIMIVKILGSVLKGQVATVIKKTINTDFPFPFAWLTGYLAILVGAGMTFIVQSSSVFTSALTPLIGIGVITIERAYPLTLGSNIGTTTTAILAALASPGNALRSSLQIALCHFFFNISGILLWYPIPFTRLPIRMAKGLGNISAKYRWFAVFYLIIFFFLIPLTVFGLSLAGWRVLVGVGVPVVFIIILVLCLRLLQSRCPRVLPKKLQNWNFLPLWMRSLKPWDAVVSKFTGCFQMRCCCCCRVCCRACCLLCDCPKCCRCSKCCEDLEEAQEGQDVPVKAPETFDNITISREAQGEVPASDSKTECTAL
protocolDetails: Inhibitory effect on 33PO4 uptake into human NaPi-IIb-expressing CHO cells
Format: cell-based
runConditions: read-out: IC50 against 33PO4 uptake into human NaPi-IIb-expressing cells
Where a name gives a salt, the structure may show the parent alone.
measurementKind: pIC50
Give bare numbers, as −log10 of the molar value.

molecule: CN1N(Cc2ccc(OCCCOCCO)c(F)c2F)C(=O)C(C(=O)Nc2ccc(C(F)(F)F)cc2-c2cc(C(F)(F)F)ncn2)=C(O)C12CCCC2
pIC50: 4.82
//
molecule: COCCN(CCOC)CCOc1ccc(CN2C(=O)C(C(=O)Nc3ccc(C(F)(F)F)cc3-c3cc(C(F)(F)F)ncn3)=C(O)C3(CCC3)N2C)c(F)c1F
pIC50: 4.58
//
molecule: CN(CCOCCOc1ccc(CN2C(=O)C(C(=O)Nc3ccc(C(F)(F)F)cc3-c3cc(C(F)(F)F)ncn3)=C(O)C3(CCCC3)N2C)c(F)c1F)C[C@H](O)[C@@H](O)[C@H](O)[C@H](O)CO
pIC50: 4.73
//
molecule: CN1N(Cc2ccc(OCCN3CCN(CCO)CC3)c(F)c2F)C(=O)C(C(=O)Nc2ccc(C(F)(F)F)cc2-c2cc(C(F)(F)F)ncn2)=C(O)C12CCCC2
pIC50: 4.67

// for each molecule below, give its pIC50
1. COCCOc1cc(NC(=O)C2=C(O)C3(CCCC3)N(C)N(Cc3ccc(OCCN(C)CCOC)c(F)c3F)C2=O)c(-c2ncnc(C(F)(F)F)c2C)cc1C(F)(F)F
2. CN1N(Cc2ccc(OCC[N+]34CCN(CC3)CC4)c(F)c2F)C(=O)C(C(=O)Nc2ccc(C(F)(F)F)cc2-c2cc(C(F)(F)F)ncn2)=C(O)C12CCCC2 [Example 415, formate]
3. CN(C[C@H](O)[C@@H](O)[C@H](O)[C@H](O)CO)C(=O)CCCOc1ccc(CN2C(=O)C(C(=O)Nc3ccc(C(F)(F)F)cc3-c3cc(C(F)(F)F)ncn3)=C(O)C3(CCCC3)N2C)c(F)c1F
4. COCCN(C)CCNc1ccc(CN2C(=O)C(C(=O)Nc3ccc(C(F)(F)F)cc3-c3cc(C(F)(F)F)ncn3)=C(O)C3(CCCC3)N2C)c(F)c1F
5. CN1N(Cc2ccc(OCCN3CCN(S(C)(=O)=O)CC3)c(F)c2F)C(=O)C(C(=O)Nc2ccc(C(F)(F)F)cc2-c2cc(C(F)(F)F)ncn2)=C(O)C12CCC2
6. CN1N(Cc2ccc(OC3COC3)c(F)c2F)C(=O)C(C(=O)Nc2ccc(C(F)(F)F)cc2-c2cc(C(F)(F)F)ncn2)=C(O)C12CCC2

[4.72, 4.73, 4.96, 5.66, 4.55, 5.20]

Item CN1N(Cc2ccc(OCCCCOC[C@H](O)CO)c(F)c2F)C(=O)C(C(=O)Nc2ccc(C(F)(F)F)cc2-c2ccc(C(F)(F)F)nc2)=C(O)C12CCCC2 has what recorded pIC50?
4.97

====

targetOrSystem: human PiT-2 (Homo sapiens, UniProt Q08357)
Sequence (Q08357 whole entry): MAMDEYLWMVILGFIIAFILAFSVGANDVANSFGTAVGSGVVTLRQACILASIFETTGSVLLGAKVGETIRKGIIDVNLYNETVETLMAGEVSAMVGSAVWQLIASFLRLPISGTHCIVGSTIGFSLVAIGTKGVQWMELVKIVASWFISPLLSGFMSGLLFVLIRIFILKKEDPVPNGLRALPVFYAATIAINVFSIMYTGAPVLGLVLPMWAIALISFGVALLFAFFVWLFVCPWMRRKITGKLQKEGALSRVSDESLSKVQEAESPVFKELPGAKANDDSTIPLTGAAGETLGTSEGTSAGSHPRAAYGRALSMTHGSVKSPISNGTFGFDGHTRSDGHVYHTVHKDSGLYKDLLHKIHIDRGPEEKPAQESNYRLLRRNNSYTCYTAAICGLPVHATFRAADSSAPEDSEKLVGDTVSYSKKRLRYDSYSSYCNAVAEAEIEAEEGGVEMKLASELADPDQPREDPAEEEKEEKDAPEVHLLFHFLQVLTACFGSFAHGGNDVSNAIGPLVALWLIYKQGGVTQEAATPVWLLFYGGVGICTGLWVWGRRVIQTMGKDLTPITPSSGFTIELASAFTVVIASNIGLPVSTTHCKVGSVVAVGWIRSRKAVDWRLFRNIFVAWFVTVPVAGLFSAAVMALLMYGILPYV
protocolDetails: Inhibitory effect on 33PO4 uptake into human PiT-2-expressing CHO cells
runConditions: pH 6.5, read-out: IC50 against 33PO4 uptake into human PiT-2-expressing cells
Labelling field: enter y if recorded IC50 is less than 4 µM. Enter n if it equals or exceeds that cut-off.

Solved cases below.
smilesRepresentation: C[C@]12CCCN1N(Cc1cccc(Cl)c1F)C(=O)C(C(=O)Nc1cc(F)c(Br)c(F)c1)=C2O
groupLabel: n
//
smilesRepresentation: COCCN(C)CCOc1ccc(CN2C(=O)C(C(=O)Nc3ccc(C(F)(F)F)cc3-c3ncnc(C(F)(F)F)c3C)=C(O)C3(CCCC3)N2C)c(F)c1F
groupLabel: y
//
smilesRepresentation: COCCN(C)CCOc1ccc(CN2C(=O)C(C(=O)Nc3ccc(C(F)(F)F)cc3-c3cc(C(F)(F)F)ncn3)=C(O)C3(CCCC3)N2C)c(F)c1F
groupLabel: y

Criterion: IC50 strictly below 4 µM. Is it met by C[C@]12CCCN1N(Cc1ccc(OCCCOC[C@H](O)CO)c(F)c1F)C(=O)C(C(=O)Nc1ccc(C(F)(F)F)cc1-c1ccc(C(F)(F)F)nc1)=C2O ?
n

Criterion: IC50 strictly below 4 µM. Is it met by C[C@]12CCCN1N(Cc1ccc(C#CCCCC(=O)O)c(F)c1F)C(=O)C(C(=O)Nc1ccc(C(F)(F)F)cc1-c1cc(C(F)(F)F)ncn1)=C2O ?
n

Criterion: IC50 strictly below 4 µM. Is it met by C[C@]12CCCN1N(Cc1ccc(C#CCN3CCOCC3)c(F)c1F)C(=O)C(C(=O)Nc1ccc(C(F)(F)F)cc1-c1ccc(C(F)(F)F)nc1)=C2O ?
y

Criterion: IC50 strictly below 4 µM. Is it met by CN1N(Cc2ccc(OCCCCC(=O)O)c(F)c2F)C(=O)C(C(=O)Nc2ccc(C(F)(F)F)cc2-c2cc(C(F)(F)F)ncn2)=C(O)C12CCCC2 ?
n

Criterion: IC50 strictly below 4 µM. Is it met by COC[C@@H]1CCCN1CCOc1ccc(CN2C(=O)C(C(=O)Nc3ccc(C(F)(F)F)cc3-c3cc(C(F)(F)F)ncn3)=C(O)C3(CCC3)N2C)c(F)c1F ?
y

Criterion: IC50 strictly below 4 µM. Is it met by CN(C)CC(C)(C)COc1ccc(CN2C(=O)C(C(=O)Nc3ccc(C(F)(F)F)cc3-c3cc(C(F)(F)F)ncn3)=C(O)C3(CCCC3)N2C)c(F)c1F ?
y

Criterion: IC50 strictly below 4 µM. Is it met by COCCN(C)CCOc1ccc(CN2C(=O)C(C(=O)Nc3ccc(C(F)(F)F)cc3-c3cc(C(F)(F)F)ncn3)=C(O)C3(CCC3)N2C)c(F)c1F ?
y

Criterion: IC50 strictly below 4 µM. Is it met by CN1[C@@H](C(C)(C)C)C(O)=C(C(=O)Nc2ccc(C(F)(F)F)cc2-c2cc(C(F)(F)F)ncn2)C(=O)N1Cc1ccc(OCCN2CCOCC2)c(F)c1F ?
y

Criterion: IC50 strictly below 4 µM. Is it met by Cc1c(C#N)ncnc1-c1cc(C(F)(F)F)ccc1NC(=O)C1=C(O)[C@@]2(C)CCCN2N(Cc2ccc(OCCN3CCOCC3)c(F)c2F)C1=O ?
y

Criterion: IC50 strictly below 4 µM. Is it met by Cc1c(C#N)ncnc1-c1cc(C(F)(F)F)ccc1NC(=O)C1=C(O)[C@H](C(C)(C)C)N(C)N(Cc2ccc(OCCN3CCOCC3)c(F)c2F)C1=O ?
y

Criterion: IC50 strictly below 4 µM. Is it met by C[C@]12CCCN1N(Cc1ccc(OCCCCOC[C@H](O)CO)c(F)c1F)C(=O)C(C(=O)Nc1ccc(C(F)(F)F)cc1-c1cc(C(F)(F)F)ncn1)=C2O ?
y

Criterion: IC50 strictly below 4 µM. Is it met by CN1[C@@H](C(C)(C)C)C(O)=C(C(=O)Nc2ccc(Cl)cc2-c2ccc(C(F)(F)F)nc2)C(=O)N1Cc1ccc(OCCN2CCOCC2)c(F)c1F ?
n

Criterion: IC50 strictly below 4 µM. Is it met by C[C@]12CCCN1N(Cc1cccc(F)c1F)C(=O)C(C(=O)Nc1ccc(C(F)(F)F)cc1-c1cc(C(F)(F)F)ncn1)=C2O ?
y

Criterion: IC50 strictly below 4 µM. Is it met by C[C@]12CCCN1N(Cc1ccc(OCCCCCCOC[C@H](O)CO)c(F)c1F)C(=O)C(C(=O)Nc1cnc(C(F)(F)F)nc1-c1ccc(C(F)(F)F)nc1)=C2O ?
n

Criterion: IC50 strictly below 4 µM. Is it met by CSc1ccc(-c2cc(Cl)ccc2NC(=O)C2=C(O)[C@H](C(C)(C)C)N(C)N(Cc3ccc(OCCN4CCOCC4)c(F)c3F)C2=O)cn1 ?
n

Criterion: IC50 strictly below 4 µM. Is it met by CN(C[C@H](O)[C@@H](O)[C@H](O)[C@H](O)CO)C(=O)CCCOc1ccc(CN2C(=O)C(C(=O)Nc3ccc(C(F)(F)F)cc3-c3cc(C(F)(F)F)ncn3)=C(O)C3(CCCC3)N2C)c(F)c1F ?
n

# credit: patent US9499553B2
